biological target: NSP14 (Severe acute respiratory syndrome coronavirus 2, UniProt P0DTD1); assay: NSP14 MTase inhibition assay at 37° C. (MTase-Glo SAH detection); assay type: biochemical, SARS-CoV-2; conditions: 0.3 nM NSP14, 2.5 μM SAM, 2.5 μM GpppA RNA, 45 min at 37° C.; read-out: Nsp14 Mtase Inh. IC50
// boundary case: IC50 equal to 0.7 nM maps to -1; strictly smaller maps to 1

Study these solved cases before continuing.
Cc1c(S(=O)(=O)c2ccc3[nH]ncc3c2)cc(C(=O)N[C@@H]2CCN(c3ccc(C(F)(F)F)cn3)C2)n1C -1
Cc1c(S(=O)(=O)c2cc(F)c3[nH]nc(F)c3c2)cc(C(=O)N[C@@H]2CCN(c3ncc(F)cn3)C2)n1C 1
Cc1c(S(=O)(=O)c2ccc3[nH]ncc3c2)cc(C(=O)NC2CCN(c3ncc(F)cn3)CC2)n1C 1
Cc1c(S(=O)(=O)c2ccc3[nH]ncc3c2)cc(C(=O)NCc2c(F)ccc3occc23)n1C 1
Cc1c(S(=O)(=O)c2ccc3[nH]ncc3c2)cc(C(=O)N[C@@H]2CCN(c3cccc4ccnn34)C2)n1C -1

Dear reviewer, please state whether O=C(N[C@@H]1CCN(c2ncc(F)cn2)C1)c1cc(S(=O)(=O)c2ccc3[nH]ncc3c2)c2n1CCC2 has IC50 strictly beneath 0.7 nM.
1

Same read-out for Cc1cc(S(=O)(=O)c2cc(C(=O)NCc3c(F)ccc4occc34)n(C)c2C)cc2cn[nH]c12 ?
1

Then this compound: Cc1c(S(=O)(=O)c2ccc3[nH]ncc3c2)cc(C(=O)N[C@@H]2CCN(c3nccnc3C#N)C2)n1C
1

What do we get for Cc1c(S(=O)(=O)c2ccc3[nH]ncc3c2)cc(C(=O)N[C@@H]2CCN(c3ccncn3)C2)n1C ?
1

Item: Cc1c(S(=O)(=O)c2cc(F)c3[nH]ncc3c2)cc(C(=O)N[C@@H]2CCN(c3ncc(F)cn3)C2)n1C
1
